- Tested on: Escherichia coli TOP10
- run_description: shrunken log2 fold change of peptide-encoding DNA abundance (4.5 h post-induction vs induction); higher = less antimicrobial activity (less host growth inhibition)
- measurement_setup: time post-induction: 4.5 h; library: site-saturation at positions 5, 18, 19, 20
Binary classification by shrunken log2 fold change, with 0.1 as an inclusive lower bound for true (1); all other cases are false (0).

# seq_string, label_value
measured = [
    ("RRIRARPPRLPRPRPRPLGDPRP", "true (1)"),
]

Query: In plain terms: is recorded shrunken log2 fold change at least 0.1 for `RRIRHRPPRLPRPRPRPWHPPRP` ?
Reply: false (0)

Query: In plain terms: is recorded shrunken log2 fold change at least 0.1 for `RRIRGRPPRLPRPRPRPGFWPRP` ?
Reply: true (1)

Query: In plain terms: is recorded shrunken log2 fold change at least 0.1 for `RRIRLRPPRLPRPRPRPVQFPRP` ?
Reply: false (0)

Query: In plain terms: is recorded shrunken log2 fold change at least 0.1 for `RRIRNRPPRLPRPRPRPHDWPRP` ?
Reply: true (1)

* * *

- Test system: Escherichia coli TOP10
- run_description: shrunken log2 fold change of peptide-encoding DNA abundance (4.5 h post-induction vs induction); higher = less antimicrobial activity (less host growth inhibition)
- measurement_setup: time post-induction: 4.5 h; library: site-saturation at positions 5, 18, 19, 20
Consider the following sequences; for each one, report its shrunken log2 fold change.
Give bare numbers.

Parameters: items (list). Returns: shrunken log2 fold change for each item.
1. RRIRLRPPRLPRPRPRPCASPRP
2. RRIRHRPPRLPRPRPRPLLWPRP
3. RRIRVRPPRLPRPRPRPPHLPRP
4. RRIRWRPPRLPRPRPRPRNHPRP

Reply:
[0.259, 0.0832, -0.0283, -0.141]

Parameters: items (list). Returns: shrunken log2 fold change for each item.
1. RRIRVRPPRLPRPRPRPQPMPRP
2. RRIRARPPRLPRPRPRPSQIPRP
3. RRIRDRPPRLPRPRPRPRIQPRP
4. RRIRKRPPRLPRPRPRPMMYPRP

Reply:
2.31
0.0409
-0.0934
-0.00208

* * *

- Tested on: Escherichia coli TOP10
- run_description: shrunken log2 fold change of peptide-encoding DNA abundance (4.5 h post-induction vs induction); higher = less antimicrobial activity (less host growth inhibition)
- measurement_setup: time post-induction: 4.5 h; library: site-saturation at positions 5, 18, 19, 20
outcome_measure: shrunken log2 fold change

# seq_string, shrunken log2 fold change
data = [
    ("RRIRQRPPRLPRPRPRPRKHPRP", 0.165),
    ("RRIRPRPPRLPRPRPRPKFVPRP", -0.0877),
    ("RRIRWRPPRLPRPRPRPQDRPRP", -0.0199),
    ("RRIRERPPRLPRPRPRPIWYPRP", 0.0381),
    ("RRIRTRPPRLPRPRPRPMWYPRP", -0.602),
]

Parameters: items (list). Returns: shrunken log2 fold change for each item.
1. RRIRWRPPRLPRPRPRPFVQPRP
2. RRIRGRPPRLPRPRPRPPNHPRP
3. RRIRCRPPRLPRPRPRPCDTPRP
4. RRIRERPPRLPRPRPRPGYFPRP

Reply:
1: -0.184; 2: 0.942; 3: -0.0925; 4: -0.0348

Parameters: items (list). Returns: shrunken log2 fold change for each item.
1. RRIRQRPPRLPRPRPRPCKCPRP
2. RRIRKRPPRLPRPRPRPDTKPRP
3. RRIRLRPPRLPRPRPRPHSTPRP
4. RRIRPRPPRLPRPRPRPPYWPRP
5. RRIRARPPRLPRPRPRPFSIPRP
6. RRIRMRPPRLPRPRPRPEERPRP

Reply:
-0.000687
-0.0643
-0.149
-0.123
0.111
2.6

Parameters: items (list). Returns: shrunken log2 fold change for each item.
1. RRIRTRPPRLPRPRPRPAYNPRP
2. RRIRKRPPRLPRPRPRPFWLPRP
3. RRIRNRPPRLPRPRPRPELKPRP
4. RRIRGRPPRLPRPRPRPNTGPRP

Reply:
1: -0.355; 2: 0.341; 3: 0.00533; 4: 0.0864

Parameters: items (list). Returns: shrunken log2 fold change for each item.
1. RRIRLRPPRLPRPRPRPPAEPRP
2. RRIRVRPPRLPRPRPRPLCVPRP
3. RRIRSRPPRLPRPRPRPMEEPRP
4. RRIRQRPPRLPRPRPRPWAMPRP

Reply:
1. 0.404
2. 1.22
3. -0.01
4. -0.0161

Parameters: items (list). Returns: shrunken log2 fold change for each item.
1. RRIRRRPPRLPRPRPRPHENPRP
2. RRIRMRPPRLPRPRPRPHFLPRP
3. RRIRFRPPRLPRPRPRPEWYPRP
4. RRIRHRPPRLPRPRPRPSRLPRP
5. RRIRIRPPRLPRPRPRPMDEPRP
6. RRIRDRPPRLPRPRPRPNYKPRP
7. RRIRTRPPRLPRPRPRPSLWPRP

Reply:
-0.019
-0.235
-0.361
0.39
0.00773
-0.241
0.277

Parameters: items (list). Returns: shrunken log2 fold change for each item.
1. RRIRGRPPRLPRPRPRPVNPPRP
2. RRIRTRPPRLPRPRPRPNDHPRP

Reply:
[0.127, -0.0838]

* * *

- System: Escherichia coli TOP10
- run_description: shrunken log2 fold change of peptide-encoding DNA abundance (4.5 h post-induction vs induction); higher = less antimicrobial activity (less host growth inhibition)
- measurement_setup: time post-induction: 4.5 h; library: site-saturation at positions 5, 18, 19, 20
Binary classification by shrunken log2 fold change, with -0.04 as an inclusive lower bound for Condition met; all other cases are Condition not met.

# seq_string, label_value
records = [
    ("RRIRTRPPRLPRPRPRPGYWPRP", "Condition not met"),
]

Query: In plain terms: is recorded shrunken log2 fold change at least -0.04 for `RRIRQRPPRLPRPRPRPFEQPRP` ?
Reply: Condition met

Query: In plain terms: is recorded shrunken log2 fold change at least -0.04 for `RRIRMRPPRLPRPRPRPPLFPRP` ?
Reply: Condition met

* * *

- System: Escherichia coli TOP10
- run_description: shrunken log2 fold change of peptide-encoding DNA abundance (4.5 h post-induction vs induction); higher = less antimicrobial activity (less host growth inhibition)
- measurement_setup: time post-induction: 4.5 h; library: site-saturation at positions 5, 18, 19, 20
Consider the following sequences; for each one, report its shrunken log2 fold change.

The cases that follow already have their shrunken log2 fold change on record.
# seq_string, shrunken log2 fold change
rows = [
    ("RRIRRRPPRLPRPRPRPVYCPRP", -0.0322),
    ("RRIRHRPPRLPRPRPRPMFNPRP", -0.608),
    ("RRIRLRPPRLPRPRPRPPQTPRP", 0.0847),
    ("RRIRFRPPRLPRPRPRPLKGPRP", -0.128),
    ("RRIRPRPPRLPRPRPRPCAIPRP", -1.01),
    ("RRIRRRPPRLPRPRPRPQNFPRP", -0.149),
]

Parameters: items (list). Returns: shrunken log2 fold change for each item.
1. RRIRDRPPRLPRPRPRPCPDPRP
2. RRIRFRPPRLPRPRPRPDYPPRP
3. RRIRGRPPRLPRPRPRPFISPRP
4. RRIRYRPPRLPRPRPRPCVPPRP

Reply:
-0.312
-0.111
0.183
-0.0398

* * *

- Tested on: Escherichia coli TOP10;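 further: peptides expressed intracellularly from a pBAD plasmid library in pooled LB shake-flask culture, induced with 0.3% L-arabinose, DNA abundance read by NGS, three biological replicates, DESeq2 with apeglm shrinkage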
- run_description: shrunken log2 fold change of peptide-encoding DNA abundance (4.5 h post-induction vs induction); higher = less antimicrobial activity (less host growth inhibition)
- measurement_setup: time post-induction: 4.5 h; library: site-saturation at positions 5, 18, 19, 20
Classes (shrunken log2 fold change): group 1 = under -0.06, group 2 = from -0.06 up to 0.09, group 3 = 0.09 and over

# seq_string, label_value
rows = [
    ("RRIRGRPPRLPRPRPRPNWSPRP", "group 3"),
    ("RRIRWRPPRLPRPRPRPYHVPRP", "group 1"),
    ("RRIRDRPPRLPRPRPRPHFLPRP", "group 2"),
]

Query: Which category fits this record: `RRIRNRPPRLPRPRPRPGYWPRP`
Reply: group 3

Query: Which category fits this record: `RRIRKRPPRLPRPRPRPMYVPRP`
Reply: group 1

Query: Which category fits this record: `RRIRLRPPRLPRPRPRPTTLPRP`
Reply: group 2

Query: Which category fits this record: `RRIRHRPPRLPRPRPRPVSIPRP`
Reply: group 2

Query: Which category fits this record: `RRIRLRPPRLPRPRPRPDTVPRP`
Reply: group 1

Query: Which category fits this record: `RRIRPRPPRLPRPRPRPSGCPRP`
Reply: group 3

Query: Which category fits this record: `RRIRSRPPRLPRPRPRPSLIPRP`
Reply: group 1

Query: Which category fits this record: `RRIRSRPPRLPRPRPRPRHTPRP`
Reply: group 2

Query: Which category fits this record: `RRIRNRPPRLPRPRPRPNKEPRP`
Reply: group 1

Query: Which category fits this record: `RRIRWRPPRLPRPRPRPPQTPRP`
Reply: group 3

Query: Which category fits this record: `RRIRTRPPRLPRPRPRPSNYPRP`
Reply: group 1

Query: Which category fits this record: `RRIRERPPRLPRPRPRPSMMPRP`
Reply: group 1

Query: Which category fits this record: `RRIRHRPPRLPRPRPRPYCKPRP`
Reply: group 1

Query: Which category fits this record: `RRIRARPPRLPRPRPRPCQTPRP`
Reply: group 1
